For each of the sequences below, state its PBM binding z-score.
tested on: PPARa:RXRa (NR concentration 270 nM, RXRa partner concentration 90 nM); test: PBM binding z-score (relative to random genomic background probes); higher = stronger binding; sequences stand for … in GC…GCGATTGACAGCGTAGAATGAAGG
Give the figure only, with no unit attached.

I'd like to know its PBM binding z-score. The sequence in question is `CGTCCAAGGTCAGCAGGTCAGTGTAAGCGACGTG`
4.91

Note, next up: `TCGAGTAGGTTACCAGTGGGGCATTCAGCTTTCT`
1.16

Please do the same for `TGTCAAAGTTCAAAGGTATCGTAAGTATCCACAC` as well.
5.28

Follow-up item: `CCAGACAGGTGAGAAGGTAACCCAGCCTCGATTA`
0.739

Further, for `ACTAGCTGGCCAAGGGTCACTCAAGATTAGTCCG` ?
3.71

Then what about the sequence `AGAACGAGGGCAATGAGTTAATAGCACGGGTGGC` ?
1.34

Thanks! And `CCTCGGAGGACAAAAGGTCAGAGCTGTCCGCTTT` ?
3.96

Please do the same for `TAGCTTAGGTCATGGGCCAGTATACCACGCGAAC` as well.
4.23

Further, for `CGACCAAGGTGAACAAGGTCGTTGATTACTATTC` ?
2.54

// same read-out, input: `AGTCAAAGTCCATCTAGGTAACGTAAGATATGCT`
0.13

Same thing, different sequence: `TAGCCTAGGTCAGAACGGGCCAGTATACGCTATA`
1.31

Likewise for `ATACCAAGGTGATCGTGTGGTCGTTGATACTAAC` ?
0.206

Cool, now `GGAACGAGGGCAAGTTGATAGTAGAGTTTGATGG`
1.74

Then what about the sequence `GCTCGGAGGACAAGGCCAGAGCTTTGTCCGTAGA` ?
-1.69

Next sequence up: `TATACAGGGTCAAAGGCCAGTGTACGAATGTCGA`
6.22

Also check `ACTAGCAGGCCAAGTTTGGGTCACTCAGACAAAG`
1.27

Could you do the same for `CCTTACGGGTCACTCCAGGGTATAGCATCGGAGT` , please?
4.27

Now consider `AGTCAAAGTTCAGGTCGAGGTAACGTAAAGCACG` and answer again.
3.6

And for `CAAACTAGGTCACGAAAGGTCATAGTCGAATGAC` ?
6.37

Queued: `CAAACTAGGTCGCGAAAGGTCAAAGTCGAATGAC`
6.03

Similarly, `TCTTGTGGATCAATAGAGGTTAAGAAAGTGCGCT` ?
1.63

What would you report for `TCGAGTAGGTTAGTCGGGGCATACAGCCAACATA` ?
0.913

// repeat for `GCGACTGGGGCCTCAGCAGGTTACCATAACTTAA` and report
-0.221

And the next one, `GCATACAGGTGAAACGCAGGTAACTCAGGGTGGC` ?
1.35

Next record, please: `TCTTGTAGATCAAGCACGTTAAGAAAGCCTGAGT`
0.484

Thanks! And `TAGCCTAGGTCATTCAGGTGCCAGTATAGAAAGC` ?
3.55

====

test system: PXR homodimer (NR concentration 270 nM); experiment: PBM binding z-score (relative to random genomic background probes); higher = stronger binding; sequences stand for … in GC…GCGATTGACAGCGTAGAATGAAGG
Property label: PBM binding z-score
// return just the number, without any unit appended

Suppose we examine the sequence `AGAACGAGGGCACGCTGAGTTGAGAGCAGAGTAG` ; what PBM binding z-score value has been reported?
0.0274

Also `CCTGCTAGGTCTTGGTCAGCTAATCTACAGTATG` , if possible.
-0.561

Can you check `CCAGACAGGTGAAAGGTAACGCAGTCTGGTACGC` next?
-0.124

Same question, `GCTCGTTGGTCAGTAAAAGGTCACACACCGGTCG` this time
1.21

Likewise for `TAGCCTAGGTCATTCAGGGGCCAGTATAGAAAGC` ?
-0.0401

Quick one: `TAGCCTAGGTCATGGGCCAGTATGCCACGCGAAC`
-0.923

Ok, now `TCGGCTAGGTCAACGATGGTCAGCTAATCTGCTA`
-0.468

Moving on to `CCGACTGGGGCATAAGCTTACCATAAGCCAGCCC`
-0.649

Again, but for `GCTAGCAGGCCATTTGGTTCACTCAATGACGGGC`
0.221

Note, next up: `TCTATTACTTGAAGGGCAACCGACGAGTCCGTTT`
0.901

Can you handle `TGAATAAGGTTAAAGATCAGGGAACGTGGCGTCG` next?
0.429

What would you report for `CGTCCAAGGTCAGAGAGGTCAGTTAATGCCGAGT` ?
12.6

Quick one: `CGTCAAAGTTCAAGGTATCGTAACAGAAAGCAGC`
1.91

// query: `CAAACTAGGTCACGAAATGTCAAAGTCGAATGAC`
0.475

Also, `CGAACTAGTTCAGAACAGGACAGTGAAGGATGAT` please.
0.378

For `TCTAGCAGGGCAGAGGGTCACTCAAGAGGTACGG` then?
-0.546

For `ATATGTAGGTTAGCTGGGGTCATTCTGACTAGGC` then?
3.72

Item: `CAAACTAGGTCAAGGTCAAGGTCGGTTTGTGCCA`
2.34

Another: `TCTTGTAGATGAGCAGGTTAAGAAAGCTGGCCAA`
-0.92

Likewise for `GCTTGTTGGTCAGTAAAAGGTCACACACCGGTCG` ?
1.12

Similarly, `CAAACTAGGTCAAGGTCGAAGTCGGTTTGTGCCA` ?
0.704

Try this sequence too: `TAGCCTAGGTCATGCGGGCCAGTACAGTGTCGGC`
-0.513

And what about the sequence `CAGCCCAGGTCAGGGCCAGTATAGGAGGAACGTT` ?
0.194

Would you kindly repeat that for `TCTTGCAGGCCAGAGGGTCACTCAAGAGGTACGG` ?
-0.469

Could you do the same for `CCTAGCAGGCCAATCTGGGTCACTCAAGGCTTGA` , please?
-0.679

Now consider `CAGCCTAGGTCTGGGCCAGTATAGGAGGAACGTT` .
-0.644

From: the supplement of paper PMC6555819
